Tested target: human Hepatocyte Growth Factor (HGF) (human)
Test protocol: competition with ^3H-Hinge for soluble HGF (1.25 ng), Bio-Gel P6 spin columns, scintillation counting
pKi: −log10 of the molar value.
Metric: pKi

D-Nle-Met-Ile-NH-(CH2)5-CONH2 (peptide) :: 6.86

[a] D-Nle-Cys-Ile-NH-(CH2)5-CONH2 (peptide)
[b] D-Nle-Trp-Ile-NH-(CH2)5-CONH2 (peptide)
Lab note: check whether a or b has the lower measured pKi. Could you answer with the label of the item you picked?
b
(b: 8.47, a: 9.88)

Data provenance is patent US20140051633A1.
